Test system: osteoblasts (OB)
MEASUREMENT_NOTES: Mammalian cell viability assay, trypan blue staining
Assay type: cell-based
STATED_CONDITIONS: 12.5 μM, 6 days of exposure
READOUT_KIND: proliferation of OB (trypan blue)

                            structure            target                       readout_kind     readout_value
0   CCCCCCCCn1c(-c2ccccc2)cnc1NCC(C)C  osteoblasts (OB)  proliferation of OB (trypan blue)  slightly reduced
1  CCCCCCCCn1c(-c2ccccc2)cnc1NC1CCCC1  osteoblasts (OB)  proliferation of OB (trypan blue)  slightly reduced
